Molecular target: human GPBAR1 (Homo sapiens)
Construct: expressed in transfected cells; host or cells: HEK-293T
Sequence (Q8TDU6 1-330): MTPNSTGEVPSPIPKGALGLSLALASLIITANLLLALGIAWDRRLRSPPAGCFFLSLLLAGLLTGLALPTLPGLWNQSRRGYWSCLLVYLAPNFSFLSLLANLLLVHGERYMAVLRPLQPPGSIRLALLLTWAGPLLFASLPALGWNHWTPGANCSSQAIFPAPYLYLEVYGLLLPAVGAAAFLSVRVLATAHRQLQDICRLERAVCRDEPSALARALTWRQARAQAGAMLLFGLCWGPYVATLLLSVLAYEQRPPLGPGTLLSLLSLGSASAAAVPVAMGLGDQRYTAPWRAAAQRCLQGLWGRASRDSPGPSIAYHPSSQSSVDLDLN
Experiment: GPBAR1 mediated transactivation, CRE-luciferase reporter in transfected HEK-293T cells
Format: cell-based
Conditions: compound at 10 microM, HEK-293T, TLCA = 100%, triplicate
Below, each of the compounds is paired with its reported GPBAR1 (% of activity in comparison to 10 μM TLCA) value.
reported metric: GPBAR1 (% of activity in comparison to 10 μM TLCA) (%)

# compound structure, tested target, quantitative readout
records = [
    ("C[C@H](CC#N)[C@H]1CC[C@H]2[C@@H]3C[C@@](O)(c4ccccc4)[C@@H]4C[C@H](O)CC[C@]4(C)[C@H]3CC[C@]12C", "human GPBAR1 (Homo sapiens)", 38.8),
    ("C=CCCC[C@]1(O)C[C@H]2[C@@H]3CC[C@H]([C@H](C)CC#N)[C@@]3(C)CC[C@@H]2[C@@]2(C)CC[C@@H](O)C[C@@H]12", "human GPBAR1 (Homo sapiens)", 90.1),
    ("C[C@H](CC#N)[C@H]1CC[C@H]2[C@@H]3C[C@](O)(Cc4ccccc4)[C@@H]4C[C@H](O)CC[C@]4(C)[C@H]3CC[C@]12C", "human GPBAR1 (Homo sapiens)", 8.3),
]
